- method-notes: chemical genetic growth profiling, strain panel (AID 1159580);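 further: tested at 20 µM; growth read once vehicle control cultures reached saturation at 30 °C; 1 = growth at the plate median or of vehicle wells; lower values mean less growth of the strain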
- experimental-context: S. cerevisiae deletion strains, growth OD, locus YKL068W, active compounds read low
Screen size: about 5,500 compounds; about 2,000 (36%) were called active. Another 18% or so got no clear call; they are omitted. The list shows a part of the results.
Reported normalized growth is given for each of the following compounds.
quantity-name: normalized growth

{"compound": "COC(=O)C[C@H]1C(C)(C)C(=O)[C@@H]2CC3=C(CC[C@]4(C)C3=CC(=O)O[C@H]4c3ccoc3)[C@@]1(C)C2=O", "quantity-name": "normalized growth", "val": 1.01}
{"compound": "COc1ccc([C@H]2Oc3cc(OC)cc(OC)c3C[C@H]2O)cc1", "quantity-name": "normalized growth", "val": 1}
{"compound": "O=C(O)c1ccccc1-c1c2cc(Br)c(=O)cc-2oc2[c]([Hg])c(O)c(Br)cc12", "quantity-name": "normalized growth", "val": 0.565}
{"compound": "CCC(C)c1cnc(CC(C)C)c(=O)n1O (stereo unspecified)", "quantity-name": "normalized growth", "val": 0.864}
{"compound": "Cc1cccc(Nc2ccccc2C(=O)O)c1C", "quantity-name": "normalized growth", "val": 0.985}
{"compound": "CC1(C)O[C@H]2[C@H](O)C[C@](O)(C(N)=O)C[C@H]2O1", "quantity-name": "normalized growth", "val": 1.01}
{"compound": "Oc1ccc2c(c1)OCC1c3cc4c(cc3OC21)OCO4 (stereo unspecified)", "quantity-name": "normalized growth", "val": 1}
{"compound": "COc1c(OC)c2occc2c2oc(=O)ccc12", "quantity-name": "normalized growth", "val": 0.978}
{"compound": "CC(=O)Oc1c(C)cccc1C(=O)O", "quantity-name": "normalized growth", "val": 0.995}
{"compound": "COc1ccc2c(c1)CCC(c1ccccc1)=C2c1ccc(OCCN2CCCC2)cc1", "quantity-name": "normalized growth", "val": 0.994}
{"compound": "CN1C(C(=O)Nc2ccccn2)=C(O)c2ccccc2S1(=O)=O", "quantity-name": "normalized growth", "val": 0.925}
